readoutKind: melting point (°C)

[
  {
    "compound": "Cc1c2c(nc3ccccc13)CCN(C(=N)N)CC2",
    "melting point [°C]": 140
  }
]

a: Nc1cc2c(c3ccccc13)C(CCl)CN2C(=O)C(F)(F)F (stereo not given)
b: C(=C1CCN(C(c2ccccc2)(c2ccccc2)c2ccccc2)CC1)c1ccc(C2=NCCO2)cc1
Which entry shows the lesser value of melting point here, a or b ? Returns: label corresponding to the selected item.
b

###

Each item that follows carries a reported melting point.

// recorded melting point for O=C(Nc1ccc(N2CCOCC2)cc1)c1ccccc1C(c1ccc(O)cc1)c1ccc(O)cc1 : 151 to 155 °C
